# Measurement target: μ receptors (Rattus norvegicus, UniProt P33535)
# Construct: assayed with a rat brain synaptosomal preparation (P2); from tissue; host or cells: rat brain P2 synaptosomes
# Sequence (P33535 whole entry): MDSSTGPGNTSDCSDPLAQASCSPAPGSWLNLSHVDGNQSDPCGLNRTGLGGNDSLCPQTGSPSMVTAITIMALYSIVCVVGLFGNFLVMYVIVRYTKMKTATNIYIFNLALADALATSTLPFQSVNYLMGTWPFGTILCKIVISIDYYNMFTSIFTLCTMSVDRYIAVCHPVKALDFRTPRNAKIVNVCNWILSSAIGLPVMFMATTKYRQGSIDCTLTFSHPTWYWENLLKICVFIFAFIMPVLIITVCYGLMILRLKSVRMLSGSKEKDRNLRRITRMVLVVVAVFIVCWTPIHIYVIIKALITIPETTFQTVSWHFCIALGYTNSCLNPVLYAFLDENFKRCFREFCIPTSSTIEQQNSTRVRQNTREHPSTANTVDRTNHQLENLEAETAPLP
# Experiment: Radio-receptor competition assay, rat brain synaptosomes, [3H]DAGO (Example 74)
# Type: binding
# Reported conditions: Receptor affinity (nM) Kiμ, rat brain P2 synaptosomes, [3H]DAGO
Non-standard residues stand in square brackets, D forms with d. Residues, ends and D or L forms follow the SMILES beside them. *: point of attachment. Dmt = Cc1cc(O)cc(C)c1C[C@H](N)C(=O)O; Tic = O=C(O)[C@@H]1Cc2ccccc2CN1; NHPh = c1ccc(N*)cc1
Observable: Ki

Sure, the documented Ki for Cc1cc(O)cc(C)c1C[C@H](N)C(=O)N1Cc2ccccc2C[C@H]1C(=O)NCC(=O)Nc1ccccc1 [Compound 27, H-Dmt-Tic-Gly-NH-Ph] (H-[Dmt]-[Tic]-Gly-NHPh) is < 1 nM

----------
# Measurement target: δ receptors (Mus musculus, UniProt P32300)
# Sequence (P32300 whole entry): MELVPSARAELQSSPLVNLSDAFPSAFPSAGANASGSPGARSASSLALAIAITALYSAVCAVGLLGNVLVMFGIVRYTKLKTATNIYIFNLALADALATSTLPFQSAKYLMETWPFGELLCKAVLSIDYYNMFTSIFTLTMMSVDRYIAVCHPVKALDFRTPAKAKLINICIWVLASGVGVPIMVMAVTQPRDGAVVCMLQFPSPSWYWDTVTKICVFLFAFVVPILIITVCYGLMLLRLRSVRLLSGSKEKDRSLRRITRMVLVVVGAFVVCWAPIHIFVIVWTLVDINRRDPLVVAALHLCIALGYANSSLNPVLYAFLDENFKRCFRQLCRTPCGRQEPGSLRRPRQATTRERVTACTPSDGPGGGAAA
# Reported conditions: δ antagonism; Ke = antilog of pA2
Non-standard residues stand in square brackets, D forms with d. Residues, ends and D or L forms follow the SMILES beside them. *: point of attachment. Dmt = Cc1cc(O)cc(C)c1C[C@H](N)C(=O)O; Tic = O=C(O)[C@@H]1Cc2ccccc2CN1; NHtBu = CC(C)(C)N*
Form field: MVD Ke (one value per entry).
# output: bare number, implied unit nM

Record excerpt, results attached:
Molecule: Cc1cc(O)cc(C)c1C[C@H](N)C(=O)N1Cc2ccccc2C[C@H]1C(=O)N[C@@H](C)C(=O)NC(C)(C)C [Compound 20, H-Dmt-Tic-Ala-NH-tBu] (H-[Dmt]-[Tic]-Ala-NHtBu; N-terminus and C-terminus assumed)
MVD Ke / nM: 0.69

Molecule: Cc1cc(O)cc(C)c1C[C@H](N)C(=O)N1Cc2ccccc2C[C@H]1C(=O)N[C@@H](C)C(=O)NC12CC3CC(CC(C3)C1)C2
MVD Ke / nM: 0.51

Per the records, this molecule ( Cc1cc(O)cc(C)c1C[C@H](N)C(=O)N1Cc2ccccc2C[C@H]1C(=O)Nc1nnn[nH]1 ) has MVD Ke equal to 36.3

According to the records, this molecule CNC(=O)[C@@H]1Cc2ccccc2CN1C(=O)[C@H](Cc1c(C)cc(O)cc1C)N(C)C displays MVD Ke of 0.41

Reported MVD Ke ( Cc1cc(O)cc(C)c1C[C@@H](C(=O)N1Cc2ccccc2C[C@@H]1C(=O)NC12CC3CC(CC(C3)C1)C2)N(C)C ) = 128

----------
# Measurement target: μ-opioid receptors (Rattus norvegicus)
# Construct: assayed with a rat brain synaptosomal preparation (P2); from tissue; host or cells: rat brain P2 synaptosomes
# Sequence (P33535 whole entry): as the sequence (P33535 whole entry) above
# Experiment: Rat brain synaptosome (P2) binding, [3H]DAGO (Example 47)
# Reported conditions: rat brain synaptosomes (P2); mean ± SEM, n in parentheses; read-out: Kiμ (nM) [^3H]DAGO
Non-standard residues stand in square brackets, D forms with d. Residues, ends and D or L forms follow the SMILES beside them. Dmt = Cc1cc(O)cc(C)c1C[C@H](N)C(=O)O; Tic = O=C(O)[C@@H]1Cc2ccccc2CN1
The following compounds are shown together with reported Ki values.
Hi! Could you send only the number? It should be in nM, unit omitted.

Compound: Cc1cc(O)cc(C)c1C[C@H](N)C(=O)N1Cc2ccccc2C[C@H]1C(=O)O [H-Dmt-Tic-OH, reference compound] (H-[Dmt]-[Tic]-OH)
Ki / nM: 3320
//
Compound: CNC(=O)[C@@H]1Cc2ccccc2CN1C(=O)[C@H](Cc1c(C)cc(O)cc1C)N(C)C
Ki / nM: 359
//
Compound: Cc1cc(O)cc(C)c1C[C@@H](C(=O)N1Cc2ccccc2C[C@H]1C(=O)O)N(C)C [N,N(Me)2-Dmt-Tic-OH, reference compound]
Ki / nM: 2440
//
Compound: CNC(=O)[C@@H]1Cc2ccccc2CN1C(=O)[C@@H](N)Cc1c(C)cc(O)cc1C [Compound 7, H-Dmt-Tic-NHMe] (H-[Dmt]-[Tic]-NHMe)
Ki / nM: 85.5

// moving on: another record for Ki
Measured Ki, Cc1cc(O)cc(C)c1CC(CN)C(=O)N1Cc2ccccc2C[C@H]1C(=O)O (some centres unmarked) : 1740
